B1: FBXO34 (parent)
chain: PRYREDPCKQCKKKYVKGDVSLCR

variants of: B1; experiment: protein stability index of a GFP-peptide fusion (GPS, HEK-293T) (PSI 1-6); higher = more stable; settings: c terminus: a fixed tail appended;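 note: lentivirally expressed fusions sorted by FACS into six bins by GFP to DsRed ratio, PSI derived from sequencing read proportions per bin multiplied by bin number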
Values of protein stability index greater than or equal to 3 map to rule met; values below map to rule not met.

VARIANT_IDENTIFIER	ASSIGNED_CATEGORY
E5H	rule not met
V16G	rule not met
L22P	rule not met
R2C	rule not met
V16I	rule not met
E5N	rule not met
L22M	rule not met
K13I	rule not met
Y3A	rule met
D19R	rule met
S21T	rule not met
L22Y	rule not met
S21C	rule met
V20H	rule met
K12R	rule met
D6S	rule not met
R2F	rule not met
K9P	rule not met
V16D	rule not met
